- ASSAYED SYSTEM: GABARAP, O95166
- Sequence (O95166 whole entry, the tested form may be a part): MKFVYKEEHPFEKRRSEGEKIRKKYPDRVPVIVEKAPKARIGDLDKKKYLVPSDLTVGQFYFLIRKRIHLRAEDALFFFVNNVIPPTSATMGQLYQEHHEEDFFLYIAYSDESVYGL
- ASSAY NAME: median log2 fold change of GCK-ALFA target abundance (FLAG IP / Myc IP barcode read proportion) (log2 ratio); each designed protein is fused to an ALFA-tag nanobody in HEK293 cells to bring the named protein to FLAG-tagged glucokinase (GCK); Myc marks an untargeted standard; higher = target protein stabilised (more abundant)
- CONDITION SUMMARY: target protein: 3xFLAG-MCP-GCK-ALFA reporter; HEK293 landing pad (RPLP)
The full ranking holds about 4,500 sequences; the median of “median log2 fold change of GCK-ALFA target abundance (FLAG IP / Myc IP barcode read proportion)” is about 0.078, and the lowest 2% start at about -0.6. The sample as a whole holds a higher share of the lowest values than the screen did.
OBSERVED PROPERTY: median log2 fold change
Answer with a bare number; do not write a unit.

Inquiry: Given GBRAP_9_7186 (protein) MQEKKEKILEEVKEELELAIEVAPEEYKELIKEKTEEVLKELEKAVKDENTTLEELLKKLEELFEKLIEIAKKNVPKETYLQIEAILGTAILSAEEIIEE , state its recorded median log2 fold change.
Reply text: -0.362

Inquiry: What does the record list as median log2 fold change for GBRAP_184_5132 (protein) TLLERAVEAKTAEELIAKARAVVEEAAAAGARLVLSVFAEDLSVEDNIAVIRELGELKAAHPQIEAIIVDLPEVSEEDLDKLIEAADAAGVKLVAAIPDE ?
Reply text: 0.00161

Inquiry: Which median log2 fold change value belongs to GBRAP_11_2756 (protein) KKEKLKEMAELAEKAAELVKKLLEEGVDNEELQEELEKVLKELKKLVKEYGDEADKKLVEIAEELWKKAKEDEENKEQYYKELLATLRVLSGDFLLEYEE ?
Reply text: 0.0874

Inquiry: Fill blank: measured median log2 fold change of the binder GBRAP_160_4379 (protein) SEELKELKEEVKKLKEEFKEEAKDLSTAEVRTLAIGVLSEIAALVWSNEAVSEETKDKIMKIIDDAIAKIRANADASPEEIVAIVTEAFDKIIELIEKEE is ____.
Reply text: 0.234

Inquiry: Any idea what its median log2 fold change is? The binder is GBRAP_160_4491 (protein) SAKVEEAKKEVKAIVDDAVDAIAEAPADQRAAIARAYAGDIVQTLLELGVVTDEQAETVLDTAEAGLAAVVAASAAGAAAAAAAAAALVATLNDMIKKFS
Reply text: -1.1

Inquiry: Need median log2 fold change of GBRAP_184_5320 (protein) KVIHKVIEVETEEEAIEKLEEVKKEAKETGEKYLVVVEIKNATEKKIEAIAEKIKEMKEEGLPIEVIVELLDEVDEELTDFAVEKMEEAGAKVVISLKDE , thanks.
Reply text: 0.193

Inquiry: // query median log2 fold change value for entry GBRAP_80_6822 (protein) MEEELEANLKALEAVDPEIAKIVREIVEIARELGVPLETLVRLAKAILELAKVDKEKARELAEELLEELREEREEGDREGALAELVDAESEALLEVEELE
Reply text: -0.574

Inquiry: For the binder shown here, GBRAP_184_5289 (protein) MVEEVVIEAENAEEAIKKIKEAAEKAKKEGKKLRLYLFLKNVDVEGFKKIAELLKELKEEGIIEDAIVEILDERTEEETDKFVEIADKAGIRLVIALSDE , give the reported median log2 fold change.
Reply text: -0.121

Inquiry: GET /values?readout=median log2 fold change&item= GBRAP_160_4650 (protein) EERKEKLKERIKELIEEAYEMMKGETHEERIAIARVMGGDIILELDEDEGVSDEAIEEVDKIMDEFVATLEANPDLTDEEIRALLEEMLKKIFEIIDKYT
Reply text: -0.715
